- System: KIT (human), P10721 [V559D/V654A]
- Sequence (P10721 whole entry V559D/V654A, looked up): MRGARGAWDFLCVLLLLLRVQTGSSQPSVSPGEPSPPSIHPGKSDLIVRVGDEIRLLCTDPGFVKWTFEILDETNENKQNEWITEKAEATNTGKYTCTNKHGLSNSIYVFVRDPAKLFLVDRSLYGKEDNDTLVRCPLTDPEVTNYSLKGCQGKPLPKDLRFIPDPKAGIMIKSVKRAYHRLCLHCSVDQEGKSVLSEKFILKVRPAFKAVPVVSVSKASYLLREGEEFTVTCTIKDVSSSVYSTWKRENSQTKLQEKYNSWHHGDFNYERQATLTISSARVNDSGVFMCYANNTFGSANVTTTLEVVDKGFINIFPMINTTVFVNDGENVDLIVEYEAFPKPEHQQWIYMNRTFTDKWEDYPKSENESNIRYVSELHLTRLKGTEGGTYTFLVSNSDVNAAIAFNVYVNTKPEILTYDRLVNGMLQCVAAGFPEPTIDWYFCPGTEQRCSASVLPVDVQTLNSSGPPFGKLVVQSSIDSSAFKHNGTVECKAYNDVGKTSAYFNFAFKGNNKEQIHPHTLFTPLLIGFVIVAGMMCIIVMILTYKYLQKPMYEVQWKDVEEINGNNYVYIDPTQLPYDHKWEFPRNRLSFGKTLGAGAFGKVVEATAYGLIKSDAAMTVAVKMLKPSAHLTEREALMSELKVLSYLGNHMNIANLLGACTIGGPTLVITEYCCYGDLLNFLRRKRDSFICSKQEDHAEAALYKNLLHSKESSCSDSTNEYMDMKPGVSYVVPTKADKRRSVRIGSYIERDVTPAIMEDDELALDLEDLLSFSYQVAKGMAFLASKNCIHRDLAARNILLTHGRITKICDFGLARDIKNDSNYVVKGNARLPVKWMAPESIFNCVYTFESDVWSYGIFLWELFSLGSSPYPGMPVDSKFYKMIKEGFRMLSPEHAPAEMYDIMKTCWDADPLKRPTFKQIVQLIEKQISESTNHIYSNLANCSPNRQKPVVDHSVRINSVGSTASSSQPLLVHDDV
- Experiment description: KINOMEscan competition binding
- Stated conditions: compound 10.0 µM
Form field: kinase still bound, per cent of control (one value per entry).
Endpoint: kinase still bound, per cent of control

compound_string=CCN(CC)CCCCNc1ncc2cc(-c3cc(OC)cc(OC)c3)c(NC(=O)NC(C)(C)C)nc2n1 target_entity="KIT (human), P10721 [V559D/V654A]" result=100%
compound_string=O=C1Nc2ccc(I)cc2/C1=C/c1cc(Br)c(O)c(Br)c1 target_entity="KIT (human), P10721 [V559D/V654A]" result=5.7%
compound_string=COc1ccc(N(C(=O)Oc2cc(C(=O)Nc3cccc(C(F)(F)F)c3)ccc2C)c2ccnc(Nc3ccc(N4CCN(C)CC4)cc3)n2)c(OC)c1 target_entity="KIT (human), P10721 [V559D/V654A]" result=9%
compound_string=CS(=O)(=O)N1CCN(Cc2cc3nc(-c4cccc5[nH]ncc45)nc(N4CCOCC4)c3s2)CC1 target_entity="KIT (human), P10721 [V559D/V654A]" result=100%
compound_string=N#C/C(=C1/Nc2ccccc2S1)c1ccnc(NCCc2cccnc2)n1 target_entity="KIT (human), P10721 [V559D/V654A]" result=100%
compound_string=CN(C)C/C=C/C(=O)Nc1cccc(Nc2ncc3c(n2)N(C)c2ccccc2C(=O)N3C)c1 target_entity="KIT (human), P10721 [V559D/V654A]" result=96%
compound_string=C[C@@H](Oc1cc(-c2cnn(C3CCNCC3)c2)cnc1N)c1c(Cl)ccc(F)c1Cl target_entity="KIT (human), P10721 [V559D/V654A]" result=100%
compound_string=C=CC(=O)Nc1ccc(C(=O)c2sc(Nc3ccc(N4CCN(C)CC4)cc3OC)nc2N)cc1 target_entity="KIT (human), P10721 [V559D/V654A]" result=100%

* * *

- Target entity: CRK2 (P.falciparum) (UniProt P61075)
- Sequence (P61075 whole entry, looked up): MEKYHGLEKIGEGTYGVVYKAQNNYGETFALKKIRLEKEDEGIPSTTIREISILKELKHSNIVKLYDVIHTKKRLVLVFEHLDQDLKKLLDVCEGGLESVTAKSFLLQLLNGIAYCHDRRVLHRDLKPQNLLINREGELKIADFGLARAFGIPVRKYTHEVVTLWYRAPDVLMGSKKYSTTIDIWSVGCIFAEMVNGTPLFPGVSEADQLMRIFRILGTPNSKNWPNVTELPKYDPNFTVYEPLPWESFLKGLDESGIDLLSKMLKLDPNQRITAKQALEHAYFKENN
- Experiment description: KINOMEscan competition binding
- Stated conditions: compound 10.0 µM
Endpoint: kinase still bound, per cent of control (%)

compound_string=CN(C)C/C=C/C(=O)Nc1ccc(C(=O)Nc2cccc(Nc3nccc(-c4cccnc4)n3)c2)cc1 endpoint="kinase still bound, per cent of control" unit_symbol=% quantitative_result=100
compound_string=NC(=O)Nc1cc(-c2cccc(F)c2)sc1C(=O)N[C@@H]1CCCNC1 endpoint="kinase still bound, per cent of control" unit_symbol=% quantitative_result=100
compound_string=C=CC(=O)Nc1cc(-n2c(=O)ccc3cnc4ccc(-c5cn[nH]c5)cc4c32)ccc1C endpoint="kinase still bound, per cent of control" unit_symbol=% quantitative_result=100
compound_string=COc1cc2ncnc(-n3nc(-c4ccccn4)nc3N)c2cc1OC endpoint="kinase still bound, per cent of control" unit_symbol=% quantitative_result=94
compound_string=O=c1cc(N2CCOCC2)oc2c(-c3cccc4c3sc3ccccc34)cccc12 endpoint="kinase still bound, per cent of control" unit_symbol=% quantitative_result=100
compound_string=COc1cc2ncn(-c3cc(OCc4ccccc4C(F)(F)F)c(C(N)=O)s3)c2cc1OC endpoint="kinase still bound, per cent of control" unit_symbol=% quantitative_result=93

* * *

Form field: kinase still bound, per cent of control (one value per entry).
- Target entity: EPHB1 (human)
- Experiment description: KINOMEscan competition binding
- Stated conditions: compound 10.0 µM
Endpoint: kinase still bound, per cent of control (%)

compound_string=COc1cc(C(=O)N2CCC(N3CCN(C)CC3)CC2)ccc1Nc1ncc2c(n1)N(C)c1ccccc1C(=O)N2C quantitative_result=98
compound_string=CCN(CC)CCCCNc1ncc2c(n1)N(C)C(=O)N(c1c(Cl)c(OC)cc(OC)c1Cl)C2 quantitative_result=100
compound_string=C[C@@H](Oc1cc(-c2cnn(C3CCNCC3)c2)cnc1N)c1c(Cl)ccc(F)c1Cl quantitative_result=0.15
compound_string=O=C(Nc1cccc(Nc2ncc(Br)c(NCCc3cnc[nH]3)n2)c1)N1CCCC1 quantitative_result=85
compound_string=COc1cc2ncnc(-n3nc(-c4ccccn4)nc3N)c2cc1OC quantitative_result=32
compound_string=COc1cc(N2CCN(C)CC2)ccc1Nc1ncc2c(n1)N(C)c1ccccc1C(=O)N2C quantitative_result=100
compound_string=N#CCNC(=O)c1ccc(-c2ccnc(Nc3ccc(N4CCOCC4)cc3)n2)cc1 quantitative_result=91
compound_string=CNC(=O)c1ccc(Nc2cc(Nc3ccccc3S(=O)(=O)C(C)C)c3cc[nH]c3n2)nc1 quantitative_result=100
compound_string=COc1cc2ncn(-c3cc(OCc4ccccc4C(F)(F)F)c(C(N)=O)s3)c2cc1OC quantitative_result=96

* * *

- Target entity: CDKL2 (human)
- Experiment description: KINOMEscan competition binding
- Stated conditions: compound 10.0 µM
Form field: kinase still bound, per cent of control (one value per entry).
Endpoint: kinase still bound, per cent of control (%)

compound_string=CNC(=O)c1cc(Oc2ccc(NC(=O)Nc3ccc(Cl)c(C(F)(F)F)c3)cc2)ccn1 endpoint="kinase still bound, per cent of control" unit_symbol=% quantitative_result=0.3
compound_string=O=C1NC(=O)/C(=C/c2ccc3nccc(-c4ccncc4)c3c2)S1 endpoint="kinase still bound, per cent of control" unit_symbol=% quantitative_result=64
compound_string=COc1cc2ncn(-c3cc(OCc4ccccc4C(F)(F)F)c(C(N)=O)s3)c2cc1OC endpoint="kinase still bound, per cent of control" unit_symbol=% quantitative_result=90
compound_string=COCC(=O)NC/C=C/c1ccc2ncnc(Nc3ccc(Oc4ccc(C)nc4)c(C)c3)c2c1 endpoint="kinase still bound, per cent of control" unit_symbol=% quantitative_result=91
compound_string=CN(C)C/C=C/C(=O)Nc1ccc(C(=O)Nc2cccc(Nc3nccc(-c4cccnc4)n3)c2)cc1 endpoint="kinase still bound, per cent of control" unit_symbol=% quantitative_result=33
compound_string=COc1ccc(N(C(=O)Oc2c(C)cccc2C)c2ccnc(Nc3ccc(N4CCN(C)CC4)cc3)n2)c(OC)c1 endpoint="kinase still bound, per cent of control" unit_symbol=% quantitative_result=0.5
compound_string=Cc1n[nH]c2ccc(-c3cncc(OC[C@@H](N)Cc4c[nH]c5ccccc45)c3)cc12 endpoint="kinase still bound, per cent of control" unit_symbol=% quantitative_result=5.2

* * *

- Target entity: CDK14 (human) (UniProt O94921)
- Sequence (O94921 whole entry, looked up): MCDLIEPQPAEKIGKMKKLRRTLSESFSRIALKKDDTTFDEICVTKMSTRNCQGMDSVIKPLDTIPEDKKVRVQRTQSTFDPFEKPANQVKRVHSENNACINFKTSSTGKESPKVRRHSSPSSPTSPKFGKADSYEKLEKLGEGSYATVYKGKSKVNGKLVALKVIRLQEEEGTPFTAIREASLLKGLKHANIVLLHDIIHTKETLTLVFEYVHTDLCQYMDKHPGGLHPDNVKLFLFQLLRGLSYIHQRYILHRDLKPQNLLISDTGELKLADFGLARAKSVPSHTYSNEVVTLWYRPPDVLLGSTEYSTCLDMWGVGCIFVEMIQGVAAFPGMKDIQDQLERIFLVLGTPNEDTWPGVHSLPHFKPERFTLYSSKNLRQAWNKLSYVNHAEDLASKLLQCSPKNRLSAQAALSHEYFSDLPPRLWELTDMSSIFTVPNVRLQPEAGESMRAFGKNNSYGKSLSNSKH
- Experiment description: KINOMEscan competition binding
- Stated conditions: compound 10.0 µM
Form field: kinase still bound, per cent of control (one value per entry).
Endpoint: kinase still bound, per cent of control

compound_string=C=CC(=O)Nc1ccc(CN(C(=O)Nc2c(Cl)c(OC)cc(OC)c2Cl)c2cc(Nc3ccc(N4CCN(C)CC4)cc3)ncn2)cc1 result=100%
compound_string=CCN1CCN(C(=O)Cc2ccc(Nc3ncc(F)c(Nc4ccc(C(=O)Nc5ccccc5Cl)cc4)n3)cc2)CC1 result=53%
compound_string=CCN(CC)CCCCNc1ncc2c(n1)N(C)C(=O)N(c1c(Cl)c(OC)cc(OC)c1Cl)C2 result=100%
compound_string=COc1cc2ncn(-c3cc(OCc4ccccc4C(F)(F)F)c(C(N)=O)s3)c2cc1OC result=90%
compound_string=CS(=O)(=O)N1CCN(Cc2cc3nc(-c4cccc5[nH]ncc45)nc(N4CCOCC4)c3s2)CC1 result=100%
compound_string=CCN(CC)CCCCNc1ncc2cc(-c3cc(OC)cc(OC)c3)c(NC(=O)NC(C)(C)C)nc2n1 result=100%
compound_string=O=C1NC(=O)/C(=C/c2ccc3nccc(-c4ccncc4)c3c2)S1 result=37%
compound_string=NC(=O)Nc1cc(-c2cccc(F)c2)sc1C(=O)N[C@@H]1CCCNC1 result=100%
compound_string=COc1cc2ncnc(-n3nc(-c4ccccn4)nc3N)c2cc1OC result=62%

* * *

- Target entity: CHEK1 (human)
- Experiment description: KINOMEscan competition binding
- Stated conditions: compound 10.0 µM
Form field: kinase still bound, per cent of control (one value per entry).
Endpoint: kinase still bound, per cent of control (%)

compound_string=COc1ccc(N(C(=O)Oc2c(C)cccc2C)c2ccnc(Nc3ccc(N4CCN(C)CC4)cc3)n2)c(OC)c1 quantitative_result=100
compound_string=CCN1CCN(C(=O)Cc2ccc(Nc3ncc(F)c(Nc4ccc(C(=O)Nc5ccccc5Cl)cc4)n3)cc2)CC1 quantitative_result=100
compound_string=CCN(CC)CCCCNc1ncc2c(n1)N(C)C(=O)N(c1c(Cl)c(OC)cc(OC)c1Cl)C2 quantitative_result=100

* * *

Form field: kinase still bound, per cent of control (one value per entry).
- Target entity: AURKA (human)
- Experiment description: KINOMEscan competition binding
- Stated conditions: compound 10.0 µM
Endpoint: kinase still bound, per cent of control (%)

compound_string=C=CC(=O)Nc1ccc(CN(C(=O)Nc2c(Cl)c(OC)cc(OC)c2Cl)c2cc(Nc3ccc(N4CCN(C)CC4)cc3)ncn2)cc1 unit_symbol=% quantitative_result=100
compound_string=CN(C)C/C=C/C(=O)Nc1ccc(C(=O)Nc2cccc(Nc3nccc(-c4cccnc4)n3)c2)cc1 unit_symbol=% quantitative_result=11
compound_string=N#CCNC(=O)c1ccc(-c2ccnc(Nc3ccc(N4CCOCC4)cc3)n2)cc1 unit_symbol=% quantitative_result=12
compound_string=COc1cc(N2CCN(C)CC2)ccc1Nc1ncc2c(n1)N(C)c1ccccc1C(=O)N2C unit_symbol=% quantitative_result=100
compound_string=CCN(CC)CCCCNc1ncc2c(n1)N(C)C(=O)N(c1c(Cl)c(OC)cc(OC)c1Cl)C2 unit_symbol=% quantitative_result=100
compound_string=O=C(Nc1cccc(Nc2ncc(Br)c(NCCc3cnc[nH]3)n2)c1)N1CCCC1 unit_symbol=% quantitative_result=1.6
compound_string=CS(=O)(=O)N1CCN(Cc2cc3nc(-c4cccc5[nH]ncc45)nc(N4CCOCC4)c3s2)CC1 unit_symbol=% quantitative_result=100
compound_string=COc1cc2ncnc(-n3nc(-c4ccccn4)nc3N)c2cc1OC unit_symbol=% quantitative_result=15
